target: T1, human LILRB2 (human, UniProt Q8N423 22-597); test: FACS, 293F-hLILRB2 cells
T1 construct: whole, on cells; also called hLILRB2
T1 sequence (Q8N423 22-597): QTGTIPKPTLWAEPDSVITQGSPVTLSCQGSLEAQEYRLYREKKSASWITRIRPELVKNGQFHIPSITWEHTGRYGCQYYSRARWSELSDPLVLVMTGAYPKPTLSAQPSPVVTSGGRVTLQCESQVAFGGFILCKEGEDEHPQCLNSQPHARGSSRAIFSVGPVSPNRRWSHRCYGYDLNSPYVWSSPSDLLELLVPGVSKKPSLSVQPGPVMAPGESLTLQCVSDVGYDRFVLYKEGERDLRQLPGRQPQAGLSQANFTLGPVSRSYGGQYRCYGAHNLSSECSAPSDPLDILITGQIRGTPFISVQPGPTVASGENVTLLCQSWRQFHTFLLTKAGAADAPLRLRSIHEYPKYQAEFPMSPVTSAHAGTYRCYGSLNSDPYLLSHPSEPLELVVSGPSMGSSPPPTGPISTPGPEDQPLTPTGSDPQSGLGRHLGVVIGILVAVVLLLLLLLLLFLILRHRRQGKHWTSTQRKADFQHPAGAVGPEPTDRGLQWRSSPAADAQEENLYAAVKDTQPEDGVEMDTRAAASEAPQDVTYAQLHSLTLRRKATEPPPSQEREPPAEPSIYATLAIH
Kindly state MFI for each of the entries shown.
Write down the numeric answer in MFI and omit the unit.

Reported MFI, binder 27-F11-E10-G10 (antibody, V domains shown, mouse monoclonal hybridoma antibody) VH: EVQLVESGGGLVQPGGSRKLSCAASGFTFSSFGMHWVRQAPEKGLEWVAYISSGSSTIYYADTVKGRFSISRDNPKNTLFLQMTSLRSEDTAMFYCARSTGTGAMDYWGQGTSVTVSS VL: DIQMTQTTSSLSASLGDRVTISCRASQDISNYLNWYQQKPDGTVKLLIYYTSRLHSGVPSRFSGSGSGTDYSLTISNLEQEDIATYFCQQGNTLPWTFGGGTKLELK : ____
27.7

Lookup 2-H8-C9-F7-E2 (antibody, V domains shown, mouse monoclonal hybridoma antibody) VH: EVQLQQSGAELVKPGASVKLSCKASGYTFTNYWMHWVKQRPGQGLEWIGEINPSNGRTNYNEKFKSKATLTVDKSSSTAYMQLSSLTSEDSAVYYCARGSLTTVVPFDYWGQGTTLTVSS VL: DIQMTQTPSSLSASLGGKVTITCKASQDINNYIAWYQHKPGKGPRLLIHYTSTLQPGIPSRFSGSGSGRDYSFSISNLEPEDIATYFCLQYDILLTFGGGTKLEK
28.8

Moving on to 25-E7-A10-H6 (antibody, V domains shown, mouse monoclonal hybridoma antibody) VH: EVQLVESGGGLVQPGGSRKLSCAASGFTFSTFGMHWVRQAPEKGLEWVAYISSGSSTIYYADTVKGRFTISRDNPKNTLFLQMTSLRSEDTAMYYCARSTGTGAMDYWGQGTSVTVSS VL: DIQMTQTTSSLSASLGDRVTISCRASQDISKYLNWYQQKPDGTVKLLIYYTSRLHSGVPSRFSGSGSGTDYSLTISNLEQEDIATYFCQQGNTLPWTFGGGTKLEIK
33.2
